System: Trypanosoma brucei
experimental-details: Activity of Trypanosoma brucei NTR assessed as NADH oxidation per mg of protein
Category scheme (Activity): band 1: < 50 nmol/min; band 2: ≥ 50 nmol/min and < 200 nmol/min; band 3: ≥ 200 nmol/min

INSERT INTO measurements (molecule, category) VALUES
  ('COc1cc([N+](=O)[O-])ccc1COP(N)(=O)N(CCCl)CCCl (stereo not given)', 'band 3');

Prompt: Hi there! Could you help me figure out the category for C[C@H](OP(N)(=O)N(CCCl)CCCl)c1ccc([N+](=O)[O-])cc1 (stereo not given in full) please?
Completion: band 2

Prompt: Hi there! Could you help me figure out the category for NP(=O)(OCc1ccc([N+](=O)[O-])c(F)c1)N(CCCl)CCCl (stereo not given) please?
Completion: band 3

Prompt: Hi there! Could you help me figure out the category for C[C@@H](OP(N)(=O)N(CCCl)CCCl)c1ccc([N+](=O)[O-])cc1 (stereo not given in full) please?
Completion: band 1

Prompt: Hi there! Could you help me figure out the category for NP(=O)(OCc1c(F)cc([N+](=O)[O-])cc1F)N(CCCl)CCCl (stereo not given) please?
Completion: band 3

Prompt: Hi there! Could you help me figure out the category for NP(=O)(OCc1ccc([N+](=O)[O-])cc1)N(CCCl)CCCl (stereo not given) please?
Completion: band 3

Prompt: Hi there! Could you help me figure out the category for NP(=O)(OCc1ccccc1[N+](=O)[O-])N(CCCl)CCCl (stereo not given) please?
Completion: band 1

Prompt: Hi there! Could you help me figure out the category for NP(=O)(OCc1cccc([N+](=O)[O-])c1)N(CCCl)CCCl (stereo not given) please?
Completion: band 3

Prompt: Hi there! Could you help me figure out the category for COc1cc(COP(N)(=O)N(CCCl)CCCl)ccc1[N+](=O)[O-] (stereo not given) please?
Completion: band 1

Prompt: Hi there! Could you help me figure out the category for Cc1cc(COP(N)(=O)N(CCCl)CCCl)ccc1[N+](=O)[O-] (stereo not given) please?
Completion: band 2

The reported measurements were obtained from ChEMBL document CHEMBL2157983.
